Values compiled from patent US8318762B2.

target: recombinant human ACC2 (Homo sapiens, UniProt O00763); construct: a full length Cytomax clone of ACC2 was purchased from Cambridge Bioscience Limited; made in house; host or cells: CHO cells (tetracycline induction, pcDNA5 FRT TO-TOPO); purified on a Softlink Soft Release Avidin column; assay: Measurement of human ACC2 inhibition (recombinant hACC2 Transcreener ADP detection FP assay); format: biochemical; details: recombinant hACC2 transcreener assay; read-out: rhACC2 IC50
Sequence (O00763 whole entry): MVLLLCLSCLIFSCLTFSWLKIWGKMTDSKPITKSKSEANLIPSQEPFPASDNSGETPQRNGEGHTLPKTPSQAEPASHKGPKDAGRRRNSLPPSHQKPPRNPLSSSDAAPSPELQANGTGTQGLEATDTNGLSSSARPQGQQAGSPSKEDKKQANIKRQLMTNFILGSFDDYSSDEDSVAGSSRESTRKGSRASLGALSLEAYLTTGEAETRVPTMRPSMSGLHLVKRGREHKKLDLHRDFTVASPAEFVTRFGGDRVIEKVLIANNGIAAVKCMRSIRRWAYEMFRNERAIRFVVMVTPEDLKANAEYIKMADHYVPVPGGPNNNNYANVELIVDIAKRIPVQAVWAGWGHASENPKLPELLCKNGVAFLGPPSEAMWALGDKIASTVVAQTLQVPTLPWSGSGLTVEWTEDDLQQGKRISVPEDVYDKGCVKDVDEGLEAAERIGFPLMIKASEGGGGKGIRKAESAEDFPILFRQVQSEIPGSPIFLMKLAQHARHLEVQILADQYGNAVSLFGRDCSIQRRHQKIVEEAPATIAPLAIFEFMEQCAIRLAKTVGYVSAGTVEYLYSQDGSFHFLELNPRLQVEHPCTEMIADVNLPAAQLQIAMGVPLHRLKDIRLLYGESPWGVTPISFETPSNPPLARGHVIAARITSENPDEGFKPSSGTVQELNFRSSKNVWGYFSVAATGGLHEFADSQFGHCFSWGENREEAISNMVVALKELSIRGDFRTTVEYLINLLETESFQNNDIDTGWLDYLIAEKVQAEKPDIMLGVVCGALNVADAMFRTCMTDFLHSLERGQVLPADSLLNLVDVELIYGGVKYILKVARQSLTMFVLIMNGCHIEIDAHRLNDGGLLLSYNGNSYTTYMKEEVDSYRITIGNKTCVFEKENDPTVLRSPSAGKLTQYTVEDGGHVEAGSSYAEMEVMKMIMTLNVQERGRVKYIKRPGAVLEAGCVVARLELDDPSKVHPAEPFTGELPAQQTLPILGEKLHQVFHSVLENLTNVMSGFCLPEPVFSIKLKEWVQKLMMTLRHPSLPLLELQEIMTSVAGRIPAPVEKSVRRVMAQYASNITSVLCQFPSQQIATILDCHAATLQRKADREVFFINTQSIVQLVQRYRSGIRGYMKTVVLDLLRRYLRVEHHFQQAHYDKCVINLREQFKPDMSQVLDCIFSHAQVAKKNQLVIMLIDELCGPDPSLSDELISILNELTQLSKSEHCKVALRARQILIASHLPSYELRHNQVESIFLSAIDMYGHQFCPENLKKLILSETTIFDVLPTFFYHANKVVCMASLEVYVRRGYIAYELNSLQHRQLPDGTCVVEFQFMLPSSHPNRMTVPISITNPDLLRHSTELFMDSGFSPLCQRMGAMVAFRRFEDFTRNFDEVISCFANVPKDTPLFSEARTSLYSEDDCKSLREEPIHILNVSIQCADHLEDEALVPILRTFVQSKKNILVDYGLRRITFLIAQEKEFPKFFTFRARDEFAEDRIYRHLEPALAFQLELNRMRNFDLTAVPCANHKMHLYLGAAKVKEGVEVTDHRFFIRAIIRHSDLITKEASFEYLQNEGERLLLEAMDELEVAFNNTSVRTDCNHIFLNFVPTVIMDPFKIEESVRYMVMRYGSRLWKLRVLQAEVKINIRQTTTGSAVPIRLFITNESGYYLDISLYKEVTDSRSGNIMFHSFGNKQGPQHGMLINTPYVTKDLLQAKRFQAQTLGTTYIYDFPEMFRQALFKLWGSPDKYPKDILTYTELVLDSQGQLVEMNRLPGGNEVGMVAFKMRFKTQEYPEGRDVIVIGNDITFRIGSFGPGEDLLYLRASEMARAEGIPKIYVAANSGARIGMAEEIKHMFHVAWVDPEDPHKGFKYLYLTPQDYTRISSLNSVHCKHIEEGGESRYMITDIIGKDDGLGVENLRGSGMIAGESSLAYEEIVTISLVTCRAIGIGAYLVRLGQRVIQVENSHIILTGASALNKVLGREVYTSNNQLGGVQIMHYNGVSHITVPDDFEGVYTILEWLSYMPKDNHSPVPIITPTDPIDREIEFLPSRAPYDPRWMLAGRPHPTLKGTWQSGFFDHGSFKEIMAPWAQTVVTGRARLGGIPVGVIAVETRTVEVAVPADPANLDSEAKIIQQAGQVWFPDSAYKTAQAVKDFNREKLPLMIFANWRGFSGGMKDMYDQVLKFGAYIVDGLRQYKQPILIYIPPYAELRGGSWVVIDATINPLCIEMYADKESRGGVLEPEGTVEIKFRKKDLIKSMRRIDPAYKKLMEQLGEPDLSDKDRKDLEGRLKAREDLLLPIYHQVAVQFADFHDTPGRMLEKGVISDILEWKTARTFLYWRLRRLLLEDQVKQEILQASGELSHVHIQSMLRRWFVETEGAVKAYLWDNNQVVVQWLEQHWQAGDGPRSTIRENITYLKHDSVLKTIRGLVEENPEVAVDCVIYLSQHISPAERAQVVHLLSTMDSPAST
MEASUREMENT NAME: pIC50
Scale: pIC50 equals -log10([C]), with [C] in mol/L.

Input CCn1nc2c(c1C)OC1(CCN(C(=O)c3ccc4sc(C)nc4c3)CC1)CC2=O . Output pIC50: 6.75

Input CCOc1cc(C(=O)N2CCC3(CC2)CC(=O)c2nn(CC)c(C)c2O3)cc2c(CC)n[nH]c12 [1.018] . Output pIC50: 7.47

Input CCc1cc(C(=O)N2CCC3(CC2)CC(=O)c2nn(CC)cc2O3)cc2cn[nH]c12 . Output pIC50: 7.40

Input Cc1n[nH]c2ccc(C(=O)N3CCC4(CC3)CC(=O)c3nn(C5CCC5)cc3O4)cc12 . Output pIC50: 7.66

Input CCCn1cc2c(n1)C(=O)CC1(CCN(C(=O)c3cc(C)c4[nH]nc(C)c4c3)CC1)O2 . Output pIC50: 7.70

Input COc1cc(C(=O)N2CCC3(CC2)CC(=O)c2nn(C(C)(C)C)cc2O3)cc2c(C)n[nH]c12 . Output pIC50: 8.70

Input CCOc1cc(C(=O)N2CCC3(CC2)CC(=O)c2nn(C(C)C)cc2O3)cc2c(CC)n[nH]c12 . Output pIC50: 8.22

----------
biological target: recombinant human ACC2 (Homo sapiens); construct: a full length Cytomax clone of ACC2 was purchased from Cambridge Bioscience Limited; made in house; host or cells: CHO cells (tetracycline induction, pcDNA5 FRT TO-TOPO); purified on a Softlink Soft Release Avidin column; experiment: Measurement of human ACC2 inhibition (recombinant hACC2 Transcreener ADP detection FP assay); type: biochemical; details: recombinant hACC2 transcreener assay; read-out: rhACC2 IC50
Note to self: class labels come from recorded IC50, ranges listed here: bottom bin: < 10 nM; middle bin: ≥ 10 nM and < 60 nM; top bin: ≥ 60 nM

Band for Cc1n[nH]c2c(C)cc(C(=O)N3CCC4(CC3)CC(=O)c3nn(C5CCC5)cc3O4)cc12 ?
bottom bin

Band for Cc1cc(C(=O)N2CCC3(CC2)CC(=O)c2nn(C4CCC4)cc2O3)cc2[nH]cnc12 ?
middle bin

Band for CCn1nc2c(c1C)OC1(CCN(C(=O)c3ccc4occc4c3)CC1)CC2=O ?
top bin

Band for Cc1cc(C(=O)N2CCC3(CC2)CC(=O)c2nn(C)c(C)c2O3)cc2cn[nH]c12 ?
top bin

Band for Cc1noc2cc(C(=O)N3CCC4(CC3)CC(=O)c3nn(C(C)(C)C)cc3O4)ccc12 ?
middle bin

Band for Cc1n[nH]c2c(C)cc(C(=O)N3CCC4(CC3)CC(=O)c3nn(C(C)C)cc3O4)cc12 ?
bottom bin

Band for CC(C)(C)n1cc2c(n1)C(=O)CC1(CCN(C(=O)c3ccc4occc4c3)CC1)O2 ?
middle bin

Band for CCn1nc2c(c1C)OC1(CCN(C(=O)c3ccc4nn(C)cc4c3)CC1)CC2=O ?
top bin

Band for CCC(C)n1cc2c(n1)C(=O)CC1(CCN(C(=O)c3cc(C)c4[nH]nc(C)c4c3)CC1)O2 (centres unmarked) ?
bottom bin

Band for CCOc1cc(C(=O)N2CCC3(CC2)CC(=O)c2nn(C(C)C)c(C)c2O3)cc2cn[nH]c12 ?
bottom bin

Band for Cc1c2c(nn1C)C(=O)CC1(CCN(C(=O)c3ccc4nn(C)cc4c3)CC1)O2 ?
top bin

Band for Cc1cc(C(=O)N2CCC3(CC2)CC(=O)c2nn(C4CCC4)c(C)c2O3)cc2cn[nH]c12 ?
bottom bin

Band for CC(C)n1cc2c(n1)C(=O)CC1(CCN(C(=O)c3ccc4snc(N)c4c3)CC1)O2 ?
middle bin

Band for CCn1nc2c(c1C)OC1(CCN(C(=O)c3cc(C)c4nc(C)[nH]c4c3)CC1)CC2=O ?
middle bin

Band for CCn1nc2c(c1C)OC1(CCN(C(=O)c3ccc4ccc(OC)cc4c3)CC1)CC2=O ?
middle bin

Band for CC(C)n1cc2c(n1)C(=O)CC1(CCN(C(=O)c3cc(F)c4nc[nH]c4c3)CC1)O2 ?
middle bin

Band for Cc1n[nH]c2c(C)cc(C(=O)N3CCC4(CC3)CC(=O)c3nn(C5CCCCC5)cc3O4)cc12 ?
middle bin
